Origin of measurements: patent US5326882A

target.entity: alkaline phosphatase (Bos taurus, UniProt P19111)
Sequence (P19111 20-506 limits assumed): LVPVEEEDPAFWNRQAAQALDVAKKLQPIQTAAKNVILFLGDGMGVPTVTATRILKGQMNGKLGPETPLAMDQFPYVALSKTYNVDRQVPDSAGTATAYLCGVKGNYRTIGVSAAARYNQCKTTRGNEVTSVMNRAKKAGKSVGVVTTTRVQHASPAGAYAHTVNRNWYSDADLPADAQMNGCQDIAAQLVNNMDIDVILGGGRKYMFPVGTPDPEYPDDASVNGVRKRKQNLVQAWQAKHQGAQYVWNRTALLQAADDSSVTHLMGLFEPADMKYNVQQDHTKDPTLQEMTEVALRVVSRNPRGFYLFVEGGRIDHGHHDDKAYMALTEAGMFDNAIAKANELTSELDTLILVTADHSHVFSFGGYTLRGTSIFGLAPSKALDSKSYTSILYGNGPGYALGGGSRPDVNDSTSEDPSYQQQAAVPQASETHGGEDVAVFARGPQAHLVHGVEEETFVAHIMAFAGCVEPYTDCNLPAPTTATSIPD
experimental.details: Chemiluminescent signal and signal:background with enhancer polymers (Example XVII)
Assay type: biochemical
reported.conditions: polymer S/TMQ(1:4); 20 min
measured.endpoint: S/N
// no unit, no text: just the number

// recorded S/N for COC1(c2cccc(OP(=O)(O)O)c2)OOC12C1CC3CC(C1)CC2C3 (stereo not shown) [AMPPD, reference compound] : 95.4

// recorded S/N for COC1(c2cccc(OP(=O)(O)O)c2)OOC12C1CC3CC2CC(Cl)(C3)C1 (stereo not shown) : 165.0

// recorded S/N for COC1(c2cccc(OP(=O)(O)O)c2)OOC12C1CC3CC2CC(O)(C3)C1 (single isomer, unassigned) [A-OH-AMPPD] : 148.1

// recorded S/N for COC1(c2cccc(OP(=O)(O)O)c2)OOC12C1CC3CC2CC(O)(C3)C1 (single isomer, unassigned) [B-OH-AMPPD] : 53.1
